Source: patent US20120282637A1

Parameter IC50: see the listing below.
target: T1, RAGE-Fc (human, UniProt Q15109 23-344, limits assumed); test: competition ELISA, hRAGE-S100B interaction
T1 construct: also called hRAGE; not shown: Fc part, detected with anti-hIgG Fc-specific conjugate
T1 sequence (Q15109 23-344 limits assumed): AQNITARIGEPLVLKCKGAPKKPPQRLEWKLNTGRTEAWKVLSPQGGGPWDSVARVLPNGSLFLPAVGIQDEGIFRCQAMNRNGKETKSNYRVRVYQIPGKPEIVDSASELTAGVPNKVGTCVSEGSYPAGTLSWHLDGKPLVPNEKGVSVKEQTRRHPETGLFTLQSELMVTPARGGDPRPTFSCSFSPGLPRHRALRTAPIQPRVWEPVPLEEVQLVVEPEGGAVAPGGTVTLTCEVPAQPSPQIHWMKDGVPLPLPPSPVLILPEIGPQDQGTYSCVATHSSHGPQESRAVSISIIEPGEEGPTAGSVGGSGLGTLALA
Field format: number, assumed µg/mL, no unit text.

>>> result_number("166 RAGE-1 (antibody, V domains shown, Anti-RAGE monoclonal antibody from a hybridoma, captured by anti-mouse Fc; also called LP08122; LP08122D) VH: QVQLQQSGPELVKPGTSVRISCKASGYTFTSYYIHWVKQRPGQGLEWIGWIYPGNVITNYHEKFKGKASLTADKSSSTAYMQLSSLTSEDSAVYFCAREDPFAYWGQGTLVTVSA VL: NIMMTQSPSSLAVSAGEKVTMSCKSSQSVLYSSNQKNYLAWYQQKPGQSPKLLIYWASTRESGVPDRFTGSGSGTDFTLTISSVQAEDLAVYYCHQYLSSYTFGGGTKLEIK")
0.128

Req: Can you share its IC50? I mean this binder: Control XT-M4 (antibody, V domains shown) VH: EVQLVESGGGLVQPGRSLKLSCVVSGFTFNNYWMTWIRQTPGKGLEWVASINNSGDNTYYPDSVKDRFTISRDNAKSTLYLQMNSLRSEDTATYYCTRGGDITTGFDYWGQGVMVTVSS VL: DIQMTQSPSSMSVSLGDTITITCRASQDVGIYVNWFQQKPGKSPRRMIYRATNLADGVPSRFSGSRSGSIYSLTISSLESEDVADYHCLEFDEHPLTFGSGTKVEIK
Resp: 0.208
